B1: SPATS1 (parent)
chain: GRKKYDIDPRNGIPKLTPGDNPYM

Variants of: B1
Test: protein stability index of a GFP-peptide fusion (GPS, HEK-293T) (PSI 1-6); higher = more stable;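 further: lentivirally expressed fusions sorted by FACS into six bins by GFP to DsRed ratio, PSI derived from sequencing read proportions per bin multiplied by bin number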
Conditions: c terminus: a fixed tail appended

>  <VARIANT SPEC>
D6E

>  <protein stability index>
3.4

$$$$
>  <VARIANT SPEC>
K4H

>  <protein stability index>
3.2

$$$$
>  <VARIANT SPEC>
G12D

>  <protein stability index>
3.3

$$$$
>  <VARIANT SPEC>
P9L

>  <protein stability index>
3.24

$$$$
>  <VARIANT SPEC>
L16F

>  <protein stability index>
3.11

$$$$
>  <VARIANT SPEC>
K15E

>  <protein stability index>
4.33

$$$$
>  <VARIANT SPEC>
P22E

>  <protein stability index>
3.85

$$$$
>  <VARIANT SPEC>
P18Q

>  <protein stability index>
3.86

$$$$
>  <VARIANT SPEC>
T17F

>  <protein stability index>
2.72

$$$$
>  <VARIANT SPEC>
D8S

>  <protein stability index>
3.33

$$$$
>  <VARIANT SPEC>
I7G

>  <protein stability index>
4.08

$$$$
